// data source = patent US8809341B2

# Test system: PC3
# assayProcedure: in vitro antiproliferation assay, PC3 (prostate)
# Type: cell-based
pIC50: −log10 of the molar value.
Hi there, I'd appreciate the recorded pIC50 for every entry that follows.

Supply pIC50 value. Item: O=C(c1cc2cc(Nc3ncc(F)c(Nc4ccc5c(c4)OCCO5)n3)ccc2o1)N1CCCNCC1 [compound 644] < 4.70

Supply pIC50 value. Item: O=C(COc1cccc(Nc2ncc(F)c(Nc3cccc(O)c3)n2)c1)N1CCNCC1 [compound 761] < 4.70

Supply pIC50 value. Item: CNC(=O)COc1cccc(Nc2ncc(F)c(Nc3ccc4c(c3)OC(F)(F)C(F)(F)O4)n2)c1 [compound 503] < 4.70

Supply pIC50 value. Item: Cc1cc(Nc2nc(Nc3cccc(OCCN4CCOCC4)c3)ncc2F)cc(Cl)c1O [compound 957] ≥ 4.70

Supply pIC50 value. Item: Cc1cc(Nc2nc(Nc3cccc(OCCN4CCNCC4)c3)ncc2F)cc(Cl)c1O [compound 984] ≥ 4.70

Supply pIC50 value. Item: CNC(=O)COc1cccc(Nc2ncc(F)c(Nc3ccc(OC(C)C)cc3)n2)c1 [compound 751] < 4.70

Supply pIC50 value. Item: O=C(COc1cccc(Nc2ncc(F)c(Nc3ccc4c(c3)OCCO4)n2)c1)NC1CCCCC1 [compound 508] < 4.70

Supply pIC50 value. Item: O=C(O)COc1cccc(Nc2ncc(F)c(Nc3cccc(O)c3)n2)c1 [compound 978] < 4.70

Supply pIC50 value. Item: COC(=O)c1cc2cc(Nc3ncc(F)c(Nc4ccc5c(c4)NC(=O)C(F)(F)O5)n3)ccc2o1 [compound 676] ≥ 4.70

Supply pIC50 value. Item: CN(C)C(=O)c1cc2cc(Nc3ncc(F)c(Nc4cccc(O)c4)n3)ccc2o1 [compound 643] < 4.70

Supply pIC50 value. Item: CNC(=O)COc1ccc(Nc2ncc(F)c(Nc3ccc4c(c3)OCCO4)n2)cc1 [compound 501] < 4.70

Supply pIC50 value. Item: Cc1cc(Nc2nc(Nc3cccc(OCC(=O)N4CCNCC4)c3)ncc2F)cc(Cl)c1O [compound 983] < 4.70

Supply pIC50 value. Item: CCOC(=O)COc1cccc(Nc2nc(Nc3cccc(O)c3)ncc2F)c1 [compound 763] < 4.70

Supply pIC50 value. Item: CNC(=O)COc1cccc(Nc2ncc(F)c(Nc3ccc(C)c(OC)c3)n2)c1 [compound 790] ≥ 4.70

Supply pIC50 value. Item: CCOC(=O)COc1cccc(Nc2ncc(F)c(Nc3cc(OC)cc(OC)c3)n2)c1 [compound 766] < 4.70

Supply pIC50 value. Item: O=C1COc2ccc(Nc3nc(Nc4cccc(O)c4)ncc3F)cc2N1 [compound 254] ≥ 4.70

Supply pIC50 value. Item: Cc1cc(Nc2ncc(F)c(Nc3cccc(C(C)(C)C)c3)n2)cc(Cl)c1O [compound 959] < 4.70

---

Hi there, I'd appreciate the recorded IC50 for every entry that follows.
# Test system: A549 cells
# assayProcedure: in vitro antiproliferation assay, A549 (lung)
# Type: cell-based
# experimentalConditions: Table 5; in vitro antiproliferation, A549 (lung) cells
# Description: The IC50 values of various compounds against a various different tumor cell lines were determined using standard in vitro antiproliferation assays. […]

Supply IC50 value. Item: `O=C(COc1ccc(Nc2ncc(F)c(Nc3ccc4c(c3)OCCO4)n2)cc1)NCCO` > 20 µM

Supply IC50 value. Item: `CC(=O)N1CCN(c2ccc(Nc3ncc(F)c(Nc4ccc5c(c4)OC(F)(F)C(F)(F)O5)n3)cc2)CC1` ≤ 20 µM

Supply IC50 value. Item: `Cc1cc(Nc2ncc(F)c(Nc3ccc4c(c3)OC(F)(F)O4)n2)cc(C(F)(F)F)c1` > 20 µM

Supply IC50 value. Item: `COc1cc(Nc2ncc(F)c(Nc3ccc4c(c3)OC(F)(F)O4)n2)cc(OC)c1` ≤ 20 µM

Supply IC50 value. Item: `O=C(COc1cccc(Nc2ncc(F)c(Nc3ccc4c(c3)OCCO4)n2)c1)N1CCNCC1` ≤ 20 µM
